Taken from the supplement of paper PMC8882468.

System: HCI-027 (organoid from a triple-negative breast cancer xenograft)
assay explanation: CTG-3D luminescence at 96 h relative to day-0 seeding control (ratio to day 0); higher = more growth / less cytotoxicity; PDxO 3D drug screen, 96 h, CTG-3D normalised to day-0 seeding control.
test parameters: 0.00025 µM; days in culture: 176
Documented CTG-3D luminescence at 96 h across a set of molecules
outcome measure: CTG-3D luminescence at 96 h

molecule | number
C=CC(=O)N1CCC[C@@H](n2nc(-c3ccc(Oc4ccccc4)cc3)c3c(N)ncnc32)C1 | 1.35
C/C=C1\NC(=O)[C@H]2CSSCC/C=C/[C@H](CC(=O)N[C@H](C(C)C)C(=O)N2)OC(=O)[C@H](C(C)C)NC1=O | 1.27
CCN1CCN(Cc2ccc(Nc3ncc(F)c(-c4cc(F)c5nc(C)n(C(C)C)c5c4)n3)nc2)CC1 | 1.51
C[C@H](NC(=O)CCC(F)(F)F)C(=O)N[C@@H]1C(=O)N(CCO)c2ncccc2-c2ccccc21 | 1.25
C[C@]12CC[C@@H]3c4ccc(O)cc4C[C@@H](CCCCCCCCC[S+]([O-])CCCC(F)(F)C(F)(F)F)[C@H]3[C@@H]1CC[C@@H]2O (stereo partly drawn) | 1.67
CS(=O)(=O)c1ccc(C(=O)Nc2ccc(Cl)c(-c3ccccn3)c2)c(Cl)c1 | 1.85
CCc1c2c(nc3ccc(O)cc13)-c1cc3c(c(=O)n1C2)COC(=O)[C@]3(O)CC | 1.79
CC[C@H](NC(=O)[C@H](C)NC)C(=O)N1C[C@@H](O)C[C@H]1Cc1c(-c2[nH]c3cc(F)ccc3c2C[C@@H]2C[C@H](O)CN2C(=O)[C@H](CC)NC(=O)[C@H](C)NC)[nH]c2cc(F)ccc12 | 1.19
